# credit: patent US20110263526A1

- System: TA100
- assay procedure: Ames test: toxicity test using TA100 strain
- Format: cell-based, Salmonella typhimurium
- study conditions: up to 5000 μg/plate (10-5000 μg/plate)
assay metric: Toxicity to TA100

# count of solved cases: 6
Which Toxicity to TA100 reading was recorded for the compound COc1ccc2cc([C@H](C)C(=O)OCCCSCCCOC(=O)OC(C)O[N+](=O)[O-])ccc2c1 (stereo partly shown) ?
non-toxic to TA100

Similarly, CCCC1O[C@@H]2C[C@H]3[C@@H]4CCC5=CC(=O)C=C[C@]5(C)[C@H]4[C@@H](O)C[C@]3(C)[C@]2(C(=O)COC(=O)c2ccc(COC(=O)OC(C)O[N+](=O)[O-])cc2)O1 (stereo partly shown) ?
Non-toxic

Then what about the compound COc1ccc2cc([C@H](C)C(=O)OC/C=C\COC(=O)OC(C)O[N+](=O)[O-])ccc2c1 (stereo partly shown) ?
non-toxic to TA100

And what about the compound COc1ccc2cc([C@H](C)C(=O)OCCS(=O)(=O)CCOC(=O)OC(C)O[N+](=O)[O-])ccc2c1 (stereo partly shown) ?
Non-toxic

Lookup COc1ccc2cc([C@H](C)C(=O)OCCSSCCOC(=O)OC(C)O[N+](=O)[O-])ccc2c1 (stereo partly shown)
non-toxic to TA100

And the next one, COc1ccc2cc([C@H](C)C(=O)OCC[S+]([O-])CCOC(=O)OC(C)O[N+](=O)[O-])ccc2c1 (stereo partly shown) ?
non-toxic to TA100

We now examine a further compound.
Tell me the measured Toxicity to TA100 of COc1ccc2cc([C@H](C)C(=O)OCCCOC(=O)OC(C)O[N+](=O)[O-])ccc2c1 (stereo partly shown) , please.
non-toxic to TA100

====

Catalogue of molecules with associated melting point

I am curious: what melting point value has been reported for COc1ccc2cc([C@H](C)C(=O)OCC[S+]([O-])CCOC(=O)OC(C)O[N+](=O)[O-])ccc2c1 (stereo partly drawn) ?
112 to 115 °C

Subsequent entry: CCCCc1nc(Cl)c(COC(=O)c2ccc(COC(=O)OC(C)O[N+](=O)[O-])cc2)n1Cc1ccc(-c2ccccc2-c2nnn[nH]2)cc1 (stereo not drawn)
107 to 109 °C

Follow-up item: COc1ccc2cc([C@H](C)C(=O)OCCS(=O)(=O)CCOC(=O)OC(C)O[N+](=O)[O-])ccc2c1 (stereo partly drawn)
98 to 100 °C

More entries:
// query melting point value for entry CC(=O)Nc1ccc(OC(=O)c2ccc(COC(=O)OC(C)O[N+](=O)[O-])cc2)cc1 (stereo not drawn)
149 to 152 °C

Record: CC(OC(=O)OC/C=C\COC(=O)C[C@H](O)C[C@H](O)CCn1c(-c2ccc(F)cc2)c(-c2ccccc2)c(C(=O)Nc2ccccc2)c1C(C)C)O[N+](=O)[O-] (stereo partly drawn)
56 to 58 °C

Record: COc1ccc2cc([C@H](C)C(=O)OC/C=C\COC(=O)OC(C)O[N+](=O)[O-])ccc2c1 (stereo partly drawn)
76 to 78 °C
